Values were extracted from patent US6479435B1.

- Test system: soybean (Glycine max L., var. Pella 86, SOY)
- experiment-description: Pre-emerge greenhouse test, crop damage rating
- Assay type: in vivo
- test-settings: 500 g ai/ha, 14 days after application, rating scale 0-100
result-type: crop damage rating SOY
Give bare numbers.

Take a look at these entries with their results.
- mol: "O=c1n(CCCF)nnn1-c1cc(Oc2ncccc2C(F)(F)F)c(Cl)cc1F"
  crop damage rating SOY: 10
- mol: "Cn1c(C(F)(F)F)nc(-c2cc(Oc3ncccc3[N+](=O)[O-])c(Cl)cc2F)c1Cl"
  crop damage rating SOY: 70
- mol: "Cn1nc(-c2cc(Oc3ncccc3C(F)(F)F)c(Cl)cc2F)c(Cl)c1C(F)(F)F"
  crop damage rating SOY: 10
- mol: "Nc1ccc(Oc2cc(-n3c(=O)n4n(c3=S)CCCC4)c(F)cc2Cl)cc1"
  crop damage rating SOY: 0
- mol: "N#Cc1ccccc1Oc1cc(-n2c(=O)n3n(c2=S)CCCC3)c(F)cc1Cl"
  crop damage rating SOY: 20
- mol: "CN1CC(=O)N(c2cc(Oc3ncccn3)c(Cl)cc2F)C1=O"
  crop damage rating SOY: 10
- mol: "O=c1n(-c2cc(Oc3ccccc3)c(Cl)cc2F)c(=S)n2n1CCCC2"
  crop damage rating SOY: 40

Now for a further compound.
Ask: I'd like to know its crop damage rating SOY. The compound in question is "O=c1n(-c2cc(Oc3ccccc3[N+](=O)[O-])c(Cl)cc2F)c(=S)n2n1CCCC2"
Reply: 40

====

- Tested on: soybean (Glycine max L., var. Pella 86, SOY)
- experiment-description: Pre-emerge greenhouse test, crop damage rating
- Assay type: in vivo
- Design: key: 0 = no damage, 100 = complete death of all plants
- test-settings: Rate 500 g al/ha, 14 days after application, rating scale 0-100
result-type: SOY crop damage rating
Give bare numbers.

- compound: "O=c1n(-c2cc(Oc3ncccc3[N+](=O)[O-])c(Cl)cc2F)c(=S)n2n1CCCC2 [Compound 8-19]"
  tested-on: "soybean (Glycine max L., var. Pella 86, SOY)"
  SOY crop damage rating: 0

Dear reader, for each entry below, please note its SOY crop damage rating.
1. CC(C)S(=O)(=O)c1cccnc1Oc1cc(-n2c(=O)n3n(c2=S)CCCC3)c(F)cc1Cl [Compound 8-37]
2. O=c1n(-c2cc(Oc3cccc(F)n3)c(Cl)cc2F)c(=S)n2n1CCCC2 [Compound 8-25]
3. O=c1n(-c2cc(Oc3nccc(C(F)(F)F)n3)c(Cl)cc2F)c(=S)n2n1CCCC2 [Compound 8-30]
4. O=c1n(-c2cc(Oc3ccccn3)c(Cl)cc2F)c(=S)n2n1CCCC2 [Compound 8-17]
5. N#Cc1ccc(Oc2cc(-n3c(=O)n4n(c3=S)CCCC4)c(F)cc2Cl)nc1 [Compound 8-22]
6. Nn1c(C(F)(F)F)cc(=O)n(-c2cc(Oc3cccc(C(F)(F)F)c3)c(Cl)cc2F)c1=O [Compound 9-25]

Reply:
1. 80
2. 20
3. 80
4. 95
5. 70
6. 80

Ask: Look at this compound and give its reported SOY crop damage rating. O=c1n(-c2cc(Oc3nc(F)c(F)cc3F)c(Cl)cc2F)c(=S)n2n1CCCC2 [Compound 8-28]
Reply: 10

====

- Tested on: ivyleaf morningglory (Ipomoea hederacea, IPOHE)
- experiment-description: Pre-emerge greenhouse herbicide test, phytotoxicity rating
- Format: in vivo
- test-settings: 1000 g ai/ha, 14 days after application, rating scale 0-100
result-type: phytotoxicity rating IPOHE
Give bare numbers.

Consider the following items and state reported phytotoxicity rating IPOHE for each.
1. O=c1cc2n(c(=O)n1-c1cc(Oc3ncccc3C(F)(F)F)c(Cl)cc1F)CCC2
2. O=c1cc2n(c(=O)n1-c1cc(Oc3ccccc3[N+](=O)[O-])c(Cl)cc1F)CCC2

Reply:
1. 100
2. 70

Please look at the items below and tell me phytotoxicity rating IPOHE for each one, in order.
1. N#Cc1cccnc1Oc1cc(-n2c(=O)cc3n(c2=O)CCC3)c(F)cc1Cl
2. CCOC(=O)C(C)Oc1ccc(Oc2cc(-n3c(=O)cc4n(c3=O)CCC4)c(F)cc2Cl)cc1 (stereo not shown)

Reply:
[100, 100]
